tested on: gastrointestinal mucosa; details: male, Wistar, rat, in vivo, 6 h
The entries below are paired with their reported Gastropathy % incidence.
Supply the numeric figure in %, leaving out any unit text.

Known Gastropathy % incidence results, listed for orientation:
> print(dat)
                                   compound           assayed.target             readout.name  unit.symbol  result
1  O=C(CCCO[N+](=O)[O-])Nc1c2c(nc3ccccc13)CCCC2  gastrointestinal mucosa  Gastropathy % incidence            %      20
2  CN(CCOC(=O)Cc1ccccc1Nc1c(Cl)cccc1Cl)CCO[N+](=O)[O-]  gastrointestinal mucosa  Gastropathy % incidence            %       0
3  Nc1c(Br)cc(Br)cc1CN[C@H]1CC[C@H](OC(=O)CCCO[N+](=O)[O-])CC1  gastrointestinal mucosa  Gastropathy % incidence            %      10
4  NCCCC(O)(P(=O)(O)O)P(=O)(O)O [Alendronate, sodic alendronate]  gastrointestinal mucosa  Gastropathy % incidence            %     100
5    Nc1c(Br)cc(Br)cc1CN[C@H]1CC[C@H](O)CC1  gastrointestinal mucosa  Gastropathy % incidence            %      60
6            O=C(O)Cc1ccccc1Nc1c(Cl)cccc1Cl  gastrointestinal mucosa  Gastropathy % incidence            %      70
7                   Nc1c2c(nc3ccccc13)CCCC2  gastrointestinal mucosa  Gastropathy % incidence            %      60

Entry under test: O=C(CCCO[N+](=O)[O-])NCCCC(O)(P(=O)(O)O)P(=O)(O)O . Its Gastropathy % incidence was 10
